SUBJECT_OF_TEST: T1, Human MuSK (R&D Systems, cat. 10189-MK, histidine tag) (human, UniProt O15146 24-495)
T1 construct: Bought protein; also called human monomeric MuSK-6xhis; not shown: histidine tag (6xhis)
T1 sequence: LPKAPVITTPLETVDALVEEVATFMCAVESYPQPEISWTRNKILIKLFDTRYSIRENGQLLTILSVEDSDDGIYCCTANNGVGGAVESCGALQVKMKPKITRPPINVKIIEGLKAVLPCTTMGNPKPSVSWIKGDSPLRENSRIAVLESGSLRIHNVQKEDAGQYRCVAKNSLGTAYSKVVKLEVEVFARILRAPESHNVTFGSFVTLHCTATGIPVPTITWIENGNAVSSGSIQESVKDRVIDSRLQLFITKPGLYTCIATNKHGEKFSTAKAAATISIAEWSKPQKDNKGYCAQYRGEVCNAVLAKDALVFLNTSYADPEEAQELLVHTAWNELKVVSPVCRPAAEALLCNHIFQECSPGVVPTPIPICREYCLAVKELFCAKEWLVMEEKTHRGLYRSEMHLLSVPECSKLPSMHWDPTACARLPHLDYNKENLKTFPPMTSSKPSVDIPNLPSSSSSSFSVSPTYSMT
METHOD_SUMMARY: SPR (Biacore), MuSK-coated chip presaturated with 500 nM 3D9b (competitor)
MEASUREMENT_LABEL: normalized extra amplitude (%)
Answers are plain numbers, in %.

# BINDER, normalized extra amplitude (%)
data = [
    ("3F6c (antibody, human IgG1, kappa, L234A L235A, V domains shown) VH: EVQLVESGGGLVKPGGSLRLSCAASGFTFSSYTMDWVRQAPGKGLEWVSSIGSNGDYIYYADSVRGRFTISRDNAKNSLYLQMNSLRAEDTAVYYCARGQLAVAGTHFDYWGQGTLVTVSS VL: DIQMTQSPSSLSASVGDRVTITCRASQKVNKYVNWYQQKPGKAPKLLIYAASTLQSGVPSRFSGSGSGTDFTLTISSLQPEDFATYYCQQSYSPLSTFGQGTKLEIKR", -3.1),
]

List reported normalized extra amplitude (%) for each of these binders:
1. 3B5 (antibody, V domains shown, also called 3B5wt) VH: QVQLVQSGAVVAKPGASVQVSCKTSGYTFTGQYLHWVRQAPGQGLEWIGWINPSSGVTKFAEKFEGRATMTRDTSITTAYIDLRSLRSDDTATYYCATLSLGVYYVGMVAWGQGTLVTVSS VL: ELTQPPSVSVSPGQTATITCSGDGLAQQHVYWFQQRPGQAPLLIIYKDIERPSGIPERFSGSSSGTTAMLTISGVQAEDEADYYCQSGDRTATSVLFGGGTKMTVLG
2. 3D10a (antibody, human IgG1, kappa, L234A L235A, V domains shown) VH: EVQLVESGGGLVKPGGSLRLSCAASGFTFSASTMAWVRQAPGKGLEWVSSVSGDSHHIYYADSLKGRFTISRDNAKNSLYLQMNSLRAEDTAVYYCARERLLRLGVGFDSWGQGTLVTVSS VL: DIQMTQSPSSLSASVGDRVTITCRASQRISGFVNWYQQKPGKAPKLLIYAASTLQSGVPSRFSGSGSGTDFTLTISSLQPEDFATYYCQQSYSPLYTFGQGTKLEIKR
3. 4D3 (antibody, human IgG1, kappa, L234A L235A, V domains shown) VH: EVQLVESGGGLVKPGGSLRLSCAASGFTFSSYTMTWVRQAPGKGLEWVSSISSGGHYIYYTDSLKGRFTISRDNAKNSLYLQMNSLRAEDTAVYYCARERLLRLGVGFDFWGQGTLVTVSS VL: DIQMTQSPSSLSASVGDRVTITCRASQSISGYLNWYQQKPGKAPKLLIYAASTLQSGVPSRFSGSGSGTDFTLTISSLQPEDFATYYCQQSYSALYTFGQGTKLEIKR

[A]
[538, -1.5, -2.6]

[Q] Query (binder): 3D9b (antibody, human IgG1, kappa, L234A L235A, V domains shown) VH: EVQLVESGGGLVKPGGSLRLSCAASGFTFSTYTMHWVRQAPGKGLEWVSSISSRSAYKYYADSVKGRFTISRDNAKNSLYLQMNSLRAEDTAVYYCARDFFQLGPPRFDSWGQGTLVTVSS VL: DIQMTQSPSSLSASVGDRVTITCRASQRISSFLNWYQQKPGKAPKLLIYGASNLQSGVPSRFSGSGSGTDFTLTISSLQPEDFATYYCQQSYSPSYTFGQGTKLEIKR ; field requested: normalized extra amplitude (%)
[A] 0
